Test system: P. berghei ANKA strain
PROCEDURE_SUMMARY: animal or person
Assay type: in vivo
CONDITIONS_USED: Table 1; trioxane 6 mg/kg + Mef-HCl 18 mg/kg, single oral dose
# key: entry, value: survival after infection avg

Some solved cases for reference:
compound=C[C@H]1[C@@H](C(=O)C[C@H]2O[C@@H]3O[C@]4(C)CC[C@H]5[C@H](C)CC[C@@H]([C@H]2C)[C@@]35OO4)O[C@@H]2O[C@]3(C)CC[C@H]4[C@H](C)CC[C@@H]1[C@@]24OO3 quantity_name="survival after infection avg" value_reported="48.3 days"
compound="C[C@H]1[C@@H](/C(C[C@H]2O[C@@H]3O[C@@]4(C)CC[C@H]5[C@H](C)CC[C@@H]([C@H]2C)[C@@]35OO4)=N\\OC(=O)N(C)C)O[C@@H]2O[C@@]3(C)CC[C@H]4[C@H](C)CC[C@@H]1[C@@]24OO3 [compound 35, dimer oxime dimethylcarbamate]" quantity_name="survival after infection avg" value_reported="51.8 days"
compound="CO[C@H]1O[C@H](/C(C[C@H]2O[C@H](OC)[C@@]34OC(C)C3C(C)C[C@H]4[C@H]2C)=N\\O)[C@H](C)[C@@H]2CC(C)C3C(C)O[C@@]312 (stereo partly shown)" quantity_name="survival after infection avg" value_reported="52.5 days"
compound="CO/N=C(/C[C@H]1O[C@H](OC)[C@@]23OC(C)C2C(C)C[C@H]3[C@H]1C)[C@H]1O[C@H](OC)[C@@]23OC(C)C2C(C)C[C@H]3[C@H]1C (stereo partly shown)" quantity_name="survival after infection avg" value_reported="60.0 days"
compound="CO[C@H]1O[C@@H]2O[C@@]3(C)CC[C@H]4[C@H](C)CC[C@@H]([C@H]1C)[C@@]24OO3 [artemether (4b), artemether, reference compound]" quantity_name="survival after infection avg" value_reported="40.0 days"
compound="CC(=O)O/N=C(/C[C@H]1O[C@@H]2O[C@@]3(C)CC[C@H]4[C@H](C)CC[C@@H]([C@H]1C)[C@@]24OO3)[C@H]1O[C@@H]2O[C@@]3(C)CC[C@H]4[C@H](C)CC[C@@H]([C@H]1C)[C@@]24OO3 [compound 36, dimer oxime acetate]" quantity_name="survival after infection avg" value_reported="27.3 days"

Moving on to the next compound.
Assay P. berghei ANKA strain, sample `C#CCO/N=C(/C[C@H]1O[C@@H]2O[C@@]3(C)CC[C@H]4[C@H](C)CC[C@@H]([C@H]1C)[C@@]24OO3)[C@H]1O[C@@H]2O[C@@]3(C)CC[C@H]4[C@H](C)CC[C@@H]([C@H]1C)[C@@]24OO3` , survival after infection avg read: 60.0 days
